Target protein (sequence): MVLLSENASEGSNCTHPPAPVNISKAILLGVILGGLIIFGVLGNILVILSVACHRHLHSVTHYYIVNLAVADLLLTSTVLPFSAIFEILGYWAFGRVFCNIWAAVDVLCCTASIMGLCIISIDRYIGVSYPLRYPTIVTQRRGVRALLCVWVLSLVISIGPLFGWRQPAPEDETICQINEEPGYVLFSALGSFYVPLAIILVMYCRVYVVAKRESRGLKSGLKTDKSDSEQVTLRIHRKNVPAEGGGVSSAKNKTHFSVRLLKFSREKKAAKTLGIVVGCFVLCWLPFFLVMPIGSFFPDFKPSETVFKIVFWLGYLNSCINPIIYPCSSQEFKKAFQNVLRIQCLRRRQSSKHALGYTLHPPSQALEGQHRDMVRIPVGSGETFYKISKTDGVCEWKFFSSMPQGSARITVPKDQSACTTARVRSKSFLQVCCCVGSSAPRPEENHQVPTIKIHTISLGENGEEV
assay_endpoint: Ki (nM)
# number only, unit nM dropped from output

query: Please report Ki for the following compound: CC(CN(C)C)CN1c2ccccc2Sc2ccc(C#N)cc21 (stereo unspecified) [CAS_62865]
result: 2.3
